system: SNB-19 CNS; experiment: NCI tumour cell line growth inhibition, 48 h
# if value of TGI reaches 4 µM, tag YES; if it stays below, tag NO

Please review the following examples before continuing.
{"compound": "CN(C)CCCNC(=O)c1ccc2c(c1)oc1cc3ccccc3c(=O)n12", "class-assignment": "YES"}
{"compound": "C=C1OC(c2ccccc2NC)=NC12CCCCC2", "class-assignment": "YES"}
{"compound": "Cc1cc(Cl)ccc1Nc1nc(C(F)(F)F)ccc1C(=O)N/N=C/c1ccc([N+](=O)[O-])cc1", "class-assignment": "YES"}

QUERY: Assess whether reported TGI for CCc1c(CNc2ccc(C(=O)NC(CC(=O)O)C(=O)O)cc2)ccc2nc(N)nc(N)c12 (stereo not given) sits at 4 µM or higher.
RESULT: YES

QUERY: Assess whether reported TGI for COC(=O)/C(=N\NC(C)(C)C)C(C(=O)C(=O)Nc1cc(C)ccc1C)c1nc2ccccc2[nH]c1=O (stereo not given) sits at 4 µM or higher.
RESULT: YES

QUERY: Assess whether reported TGI for Cn1c2c(c3ccc(Cl)c(Cl)c31)C(C#N)C1(CCNCC1)NC2=O (stereo not given) sits at 4 µM or higher.
RESULT: YES

QUERY: Assess whether reported TGI for Nc1ccccc1C#C/C=C\C#Cc1ccccc1[N+](=O)[O-] sits at 4 µM or higher.
RESULT: YES

QUERY: Assess whether reported TGI for CC[PH+](CC)CC.O=COC1OC([S-])C(OC=O)C(OC=O)C1OC=O.[Au+] (stereo not given) sits at 4 µM or higher.
RESULT: NO

QUERY: Assess whether reported TGI for N#CCCN(CCC#N)c1ccc(C(Sc2ccccc2)C(NC(=O)c2cc([N+](=O)[O-])ccc2Cl)C(=O)Sc2ccccc2)cc1 (stereo not given) sits at 4 µM or higher.
RESULT: YES

QUERY: Assess whether reported TGI for S=C(N/N=C\C(=N/NC(=S)N1CCCCC1)c1ccccc1)N1CCCCC1 sits at 4 µM or higher.
RESULT: NO

====

test system: MDA-MB-435; experiment: NCI tumour cell line growth inhibition, 48 h
readout-label: TGI (µM)
Kindly provide the numeric value in µM only, without the unit symbol.

Observe how each entry below is paired with its result.
{"line-notation": "O=[N+]([O-])c1ccc(NC(=S)N=Nc2c(O)[nH]c3ccc([N+](=O)[O-])cc23)cc1", "TGI, µM": 38.7}
{"line-notation": "CCn1c2ccc(C(=O)CCCN3CCCCC3)cc2c2cc(C(=O)CCCN3CCCCC3)ccc21", "TGI, µM": 3.3}
{"line-notation": "OCCNc1ncnc2c1ncn2Cc1cccc(COc2cccc(OCc3cccc(Cn4cnc5c(NCCO)ncnc54)c3)c2)c1", "TGI, µM": 35.7}

QUERY: What is its TGI for MDA-MB-435? Entry: Cc1nc2sccn2c1-c1csc(Nc2cccc(Cl)c2C)n1
RESULT: 6.47

====

Recorded TGI values for a group of compounds are listed next.
system: CCRF-CEM leukemia; experiment: NCI tumour cell line growth inhibition, 48 h

{"compound": "C=C1C(OC2O[C@@H]3O[C@@]4(C)CC[C@H]5[C@H](C)CC[C@@H](C2=C)[C@@]35O4)O[C@@H]2O[C@@]3(C)CC[C@H]4[C@H](C)CC[C@@H]1[C@@]24O3 (some centres undefined)", "readout-label": "TGI", "result": "> 50 µM"}
{"compound": "COc1ccc(Nc2nc(N)c(C(=O)c3c[nH]c4ccccc34)s2)cc1", "readout-label": "TGI", "result": "6.02 µM"}

QUERY: TGI for CC(C)C(CC(=O)OCC(CO)OC(=O)CC(C(C)C)C(C)C)C(C)C (centres undefined) ?
RESULT: 31.7 µM

QUERY: TGI for Cc1ccccc1C1=C(C(=O)Nc2ccc(Cl)c(Cl)c2)NC(=S)NC1N (centres undefined) ?
RESULT: > 100 µM
